- targetDesc: human thiamine transporter 2 (hTHTR-2) (Homo sapiens, UniProt Q9BZV2)
- Sequence (Q9BZV2 whole entry): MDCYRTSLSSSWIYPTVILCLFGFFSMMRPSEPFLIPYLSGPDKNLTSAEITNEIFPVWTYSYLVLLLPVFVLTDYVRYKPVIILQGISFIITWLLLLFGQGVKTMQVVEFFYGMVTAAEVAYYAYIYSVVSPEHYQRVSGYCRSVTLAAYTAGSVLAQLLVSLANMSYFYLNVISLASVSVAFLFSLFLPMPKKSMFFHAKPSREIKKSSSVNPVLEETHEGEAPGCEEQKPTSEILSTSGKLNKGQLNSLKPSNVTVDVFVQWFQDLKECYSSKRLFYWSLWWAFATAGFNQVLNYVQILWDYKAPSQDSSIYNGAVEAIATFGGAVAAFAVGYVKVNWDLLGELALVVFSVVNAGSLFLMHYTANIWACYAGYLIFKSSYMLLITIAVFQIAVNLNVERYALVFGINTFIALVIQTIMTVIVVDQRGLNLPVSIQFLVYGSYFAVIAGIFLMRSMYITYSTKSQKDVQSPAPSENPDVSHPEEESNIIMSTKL
- assayProtocol: inhibition of [3H]thiamine uptake in HEK-hTHTR-2 cells
- Type: cell-based
metric: IC50
Could you write the number and then its unit?

Notebook: [H]/N=C(/N)N/C(=N/[H])NCCc1ccccc1 [phenformin] , IC50 read as 244 µM

---

- targetDesc: human thiamine transporter 2 (hTHTR-2) (Homo sapiens, UniProt Q9BZV2)
- assayProtocol: saturable […]metformin uptake
- Assay type: cell-based
metric: pIC50
Friendly reminder that pIC50 comes from taking -log10 of the concentration in mol/L.

Notebook: CN(C)C(=N)N=C(N)N [metformin, 1,1-dimethylbiguanide] , pIC50 read as 3.17

Values compiled from paper PMC4800991.
